target: recombinant human HDAC1 (Homo sapiens, UniProt Q13547); construct: FLAG (C); assay: In vitro enzyme assay of recombinant HDAC1; conditions: recombinant human HDAC1 produced in Hi5 insect cells; acetylated histone H4 peptide, Fluor de Lys; read-out: Test (a) IC50
Sequence (Q13547 whole entry): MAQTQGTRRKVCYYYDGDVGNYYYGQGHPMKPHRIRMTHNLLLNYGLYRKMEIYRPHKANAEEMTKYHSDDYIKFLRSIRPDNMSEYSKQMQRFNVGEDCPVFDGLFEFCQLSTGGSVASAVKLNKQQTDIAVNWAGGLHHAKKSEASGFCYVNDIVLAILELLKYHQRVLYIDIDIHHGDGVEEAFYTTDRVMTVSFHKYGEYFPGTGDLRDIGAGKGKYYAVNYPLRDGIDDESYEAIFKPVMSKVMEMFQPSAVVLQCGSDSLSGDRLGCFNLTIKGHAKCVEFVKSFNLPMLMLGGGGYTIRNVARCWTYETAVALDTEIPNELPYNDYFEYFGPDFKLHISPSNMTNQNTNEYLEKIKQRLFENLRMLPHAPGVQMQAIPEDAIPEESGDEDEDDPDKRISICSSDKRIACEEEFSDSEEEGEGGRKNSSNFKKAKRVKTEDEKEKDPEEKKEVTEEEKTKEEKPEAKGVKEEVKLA
Below, each entry is listed alongside its reported IC50.
Just the number please, in nM, no unit attached.

These solved cases illustrate the format of a correct answer.
- compound: "C[C@@H]1CC[C@@H](C)N1Cc1cnc(-c2ccc(C(=O)Nc3ccccc3N)cc2)c(C#N)c1"
  value.type: "IC50"
  value.measured: 6
- compound: "N#Cc1cc(CN2CCC(c3ccccn3)C2)cnc1-c1ccc(C(=O)Nc2ccccc2N)cc1 (stereo not shown)"
  value.type: "IC50"
  value.measured: 3
- compound: "CC(C)N(C)Cc1cnc(-c2ccc(C(=O)Nc3ccccc3N)cc2)c(C#N)c1"
  value.type: "IC50"
  value.measured: 12

The record that follows has no IC50 shown yet.
Enquiry: Given the entry N#Cc1cccnc1-c1ccc(C(=O)Nc2ccccc2N)cc1 , report its measured IC50.
Return: 13
